Kindly state RSV Neutralization - IC50 for each of the entries shown.
Molecular target: fusion glycoprotein of the RSV used in the neutralization assay of Example 1 (respiratory syncytial virus (strain not stated))
Assay: cell-based or functional assay
Form entry: value (ng/mL) — number only.

RSV Neutralization - IC50 measured on MPK187 (antibody, V domains shown) VH: QVQLVQSGAEVKKPGASVKVSCKTSGYYFNDYFIHWVRHAPGQGLEWMGWVNPLSGATVYAQKFQGWVTLTRDTSINTAYMELTRLTSNDTAMYYCATGALFWTGPTYWGQGTPVTVSA VL: EIVLTQSPATLSLFPGERATLSCRTSQFVSNNLAWYQQRPGQAPRLLIYDASSRASGTPGRFSASGSGTDFTLTVSSLETEDFAIYYCQHRSNWPPGITFGPGTRVDIR = 9.1

// sample RSD5-FR-GL-rIgG1 (antibody, V domains shown) VH: QVQLVESGGGVVQPGRSLRLSCAASGFAFNNFAMHWVRQAPGKGLEWVAVVSYDGTSPYYADSVKGRFTISRDNSKNTLYLQMNSLRAEDTAVYYCARGLGSGSYSWIGYFYAMDVWGQGTTVTVSS VL: QSALTQPASVSGSPGQSITISCTGTSSDVGGYVYVSWYQQHPGKAPKLMIYDVSNRPSGVSNRFSGSKSGNTASLTISGLQAEDEADYYCISYTDRNTVVFGGGTKLTVL , its RSV Neutralization - IC50 was 5.41
